Tested on: HL-60
experiment-summary: Cell proliferation assay (CellTiter-Glo), HL-60
Type: cell-based
run-parameters: Homo sapiens, HL-60 cells, 72 h
pIC50: −log10 of the molar value.
Would you kindly list pIC50 for each of these compounds?

Sample records with pIC50:
Cc1nnn2c1-c1ccc(CCN3CCOCC3)cc1N(c1ccc(Cl)cc1)CC2 = 5.30 to 6.00
Cc1nnn2c1-c1ccc(C(=O)NOCCO)cc1N(c1ccc(Cl)cc1)CC2 = > 6.00
C=Cc1cccc(N2CCn3nnc(C)c3-c3ccccc32)c1 = 5.30 to 6.00
Cc1nnn2c1-c1ccc(C(=O)NC(C)c3ccccc3)cc1N(c1ccc(Cl)cc1)CC2 (stereo in doubt) [Example 39] = > 6.00
Cc1nnn2c1-c1ccc(-c3cc[nH]n3)cc1N(c1ccc(Cl)cc1)CC2 = > 6.00

Record pIC50 for all entries; do not skip any.
1. Cc1nnn2c1-c1ccc(C(=O)NS(C)(=O)=O)cc1N(c1ccc(Cl)cc1)CC2
2. Cc1nnn2c1-c1ccccc1N(c1ccc(Cl)cc1)CC2
3. Cc1nnn2c1-c1ccc(C(=O)NC(C)c3ccccc3)cc1N(c1ccc(Cl)cc1)CC2 (stereo in doubt) [Example 35]
4. CONC(=O)c1ccc2c(c1)N(c1ccc(Cl)cc1)CCn1nnc(C)c1-2
5. Cc1nnn2c1-c1ccc(-c3ccc(N)nc3)cc1N(c1ccc(Cl)cc1)CC2

Result block:
1. 5.30 to 6.00
2. 5.30 to 6.00
3. > 6.00
4. > 6.00
5. > 6.00
